Biological target: LRRK2 (Homo sapiens, UniProt Q5S007, G2019S)
Construct: purchased Invitrogen PV4882 (lot 567054A)
Sequence (Q5S007 whole entry G2019S): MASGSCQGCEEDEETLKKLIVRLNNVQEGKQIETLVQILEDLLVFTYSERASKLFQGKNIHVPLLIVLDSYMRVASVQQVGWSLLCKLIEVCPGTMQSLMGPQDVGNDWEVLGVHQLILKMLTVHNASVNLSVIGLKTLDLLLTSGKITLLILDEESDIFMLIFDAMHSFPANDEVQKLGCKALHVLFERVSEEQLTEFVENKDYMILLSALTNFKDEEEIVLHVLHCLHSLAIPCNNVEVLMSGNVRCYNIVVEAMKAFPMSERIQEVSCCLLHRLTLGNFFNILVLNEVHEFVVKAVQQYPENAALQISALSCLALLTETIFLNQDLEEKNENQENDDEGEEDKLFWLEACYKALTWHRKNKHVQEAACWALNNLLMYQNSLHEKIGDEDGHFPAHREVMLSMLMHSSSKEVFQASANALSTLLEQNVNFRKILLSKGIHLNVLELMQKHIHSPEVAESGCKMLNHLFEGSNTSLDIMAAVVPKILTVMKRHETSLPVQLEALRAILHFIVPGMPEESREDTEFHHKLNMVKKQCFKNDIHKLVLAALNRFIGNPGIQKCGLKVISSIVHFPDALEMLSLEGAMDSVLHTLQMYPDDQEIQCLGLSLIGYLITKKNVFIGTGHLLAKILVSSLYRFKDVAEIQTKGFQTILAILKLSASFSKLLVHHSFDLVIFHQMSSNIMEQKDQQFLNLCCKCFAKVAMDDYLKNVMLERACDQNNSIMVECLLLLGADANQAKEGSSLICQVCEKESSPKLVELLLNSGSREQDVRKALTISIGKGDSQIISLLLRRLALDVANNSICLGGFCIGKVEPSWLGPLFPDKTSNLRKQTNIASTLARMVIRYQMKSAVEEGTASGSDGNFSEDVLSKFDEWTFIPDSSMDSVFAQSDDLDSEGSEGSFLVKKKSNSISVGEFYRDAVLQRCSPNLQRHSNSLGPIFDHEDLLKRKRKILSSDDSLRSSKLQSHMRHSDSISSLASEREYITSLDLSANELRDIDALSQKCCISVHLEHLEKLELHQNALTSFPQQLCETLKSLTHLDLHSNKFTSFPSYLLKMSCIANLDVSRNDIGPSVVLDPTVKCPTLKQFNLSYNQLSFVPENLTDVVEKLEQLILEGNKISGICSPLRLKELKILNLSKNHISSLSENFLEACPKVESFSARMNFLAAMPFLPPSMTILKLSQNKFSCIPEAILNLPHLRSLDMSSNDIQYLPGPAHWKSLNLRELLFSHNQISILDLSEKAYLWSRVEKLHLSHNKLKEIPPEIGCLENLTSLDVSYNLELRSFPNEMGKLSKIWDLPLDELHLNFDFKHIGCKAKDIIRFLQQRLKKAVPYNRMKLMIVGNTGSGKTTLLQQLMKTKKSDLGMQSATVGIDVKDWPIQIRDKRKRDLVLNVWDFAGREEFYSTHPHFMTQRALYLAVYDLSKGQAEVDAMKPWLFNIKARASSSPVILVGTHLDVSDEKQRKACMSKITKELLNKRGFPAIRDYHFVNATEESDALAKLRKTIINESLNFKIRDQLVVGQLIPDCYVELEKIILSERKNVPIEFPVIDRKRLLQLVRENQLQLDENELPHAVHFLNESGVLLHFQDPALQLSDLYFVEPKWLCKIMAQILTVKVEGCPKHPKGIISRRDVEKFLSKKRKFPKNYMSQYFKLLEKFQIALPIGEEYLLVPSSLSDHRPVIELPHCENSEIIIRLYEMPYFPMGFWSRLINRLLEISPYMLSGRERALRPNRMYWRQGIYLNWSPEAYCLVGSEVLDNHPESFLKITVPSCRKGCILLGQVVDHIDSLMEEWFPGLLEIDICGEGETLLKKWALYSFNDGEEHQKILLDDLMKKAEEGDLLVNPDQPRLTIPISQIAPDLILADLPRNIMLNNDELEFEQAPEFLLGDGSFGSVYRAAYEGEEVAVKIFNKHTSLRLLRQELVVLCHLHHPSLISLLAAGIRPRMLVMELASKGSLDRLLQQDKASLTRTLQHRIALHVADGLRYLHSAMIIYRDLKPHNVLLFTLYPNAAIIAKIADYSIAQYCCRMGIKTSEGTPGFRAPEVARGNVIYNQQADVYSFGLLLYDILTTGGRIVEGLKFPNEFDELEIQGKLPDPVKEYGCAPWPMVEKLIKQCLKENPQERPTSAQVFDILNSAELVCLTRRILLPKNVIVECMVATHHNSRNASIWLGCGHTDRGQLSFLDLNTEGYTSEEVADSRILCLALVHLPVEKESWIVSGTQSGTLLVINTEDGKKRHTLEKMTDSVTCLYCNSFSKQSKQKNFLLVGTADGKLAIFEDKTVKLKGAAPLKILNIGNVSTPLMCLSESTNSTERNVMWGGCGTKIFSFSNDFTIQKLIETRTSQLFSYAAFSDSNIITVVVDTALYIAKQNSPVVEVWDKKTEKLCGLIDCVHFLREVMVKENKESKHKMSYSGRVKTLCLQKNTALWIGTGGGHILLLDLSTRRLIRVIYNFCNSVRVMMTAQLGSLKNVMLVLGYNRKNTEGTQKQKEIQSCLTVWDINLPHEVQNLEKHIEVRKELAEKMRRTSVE
Assay: In Vitro LRRK2 Assay (LabChip 3000, fluorescently-labeled peptide substrate, ATP)
Type: biochemical
Conditions: read-out: LRRK2 Ki (KI), Table 8
pKi: −log10 of the molar value.
assay-readout: pKi

CNc1nc(Nc2cn(-c3ccc(C#N)cc3)nc2C)ncc1C(F)(F)F [Example 148]
9.52
CNc1nc(Nc2cn(C3CCCC3OC)nc2C)ncc1C(F)(F)F (stereo not drawn) [Example 188]
7.92
CNc1nc(Nc2cn(C)nc2C2CCC2)ncc1C(F)(F)F [Example 228]
8.47
CCNc1nc(Nc2cn(-c3ccc(S(=O)(=O)C4CC4)cc3)nc2C)ncc1C(F)(F)F [Example 264]
8.49
CNc1nc(Nc2cn(-c3ncccn3)nc2C)ncc1C(F)(F)F [Example 128]
7.94

1. CNc1nc(Nc2cn(-c3ccc(F)cc3)nc2C)ncc1Br [Example 108]
2. CNc1nc(Nc2cn(Cc3cnccn3)nc2C)ncc1C(F)(F)F [Example 317]
Which record shows the lower pKi: the first, 1 , or the second, 2 ? Returns: label corresponding to the selected item. 2

1. CNc1nc(Nc2cnn(-c3ccc(S(C)(=O)=O)cc3)c2C)ncc1C(F)(F)F [Example 125]
2. CCN1CCC(n2ncc(Nc3ncc(C(F)(F)F)c(NC)n3)c2Cl)C(F)C1 (stereo not drawn) [Example 242]
3. CCNc1nc(Nc2cn([C@H]3CCCN(C)C3)nc2C)ncc1C(F)(F)F [Example 312]
4. CNc1nc(Nc2cn([C@@H](C)COC)nc2C)ncc1C(F)(F)F [Example 275]
Falling order of pKi, please. Lab note: final answer is the ordered label list. 2, 1, 4, 3

P. CCNc1nc(Nc2cnn(C3CCN(C(=O)C4CC4)CC3)c2C)ncc1C(F)(F)F [Example 184]
Q. CNc1nc(Nc2cn(C3CCN(CCOC)CC3)nc2C)ncc1C(F)(F)F [Example 238]
Of the two listed items, P and Q , which carries the larger pKi figure? Your choice should be expressed through its label. P
(P: 8.33, Q: 7.80)
